test: Solubility of apomorphine in phosphate buffers at varying pH (Example 14); assay type: physicochemical; details: pH 5.00 phosphate buffer, stirred ~18 hours; hydrochloride; unit assumed
Where a name gives a salt, the structure may show the parent alone.

compound: CN1CCc2cccc3c2[C@H]1Cc1ccc(O)c(O)c1-3 [Apomorphine HCl, apomorphine hydrochloride]
solubility / mg/mL: 18.8

----------
test: Solubility of apomorphine in phosphate buffers at varying pH (Example 14); format: physicochemical; settings: pH 7.40 phosphate buffer, stirred ~18 hours; unit assumed

compound: CN1CCc2cccc3c2[C@H]1Cc1ccc(O)c(O)c1-3 [Apomorphine Free Base, 6αβ-aporphine-10, 11 diol]
readout units: µg/mL
solubility: 400
